# System: Calf thymus DNA
# Method Description: Binding affinity to calf thymus DNA assessed as binding constant incubated for 10 mins by UV-Vis absorption spectroscopic method
# Assay type: nucleic-acid assay
# Test Settings: Bos taurus
Readout: Kb (×10⁴ /M)

C=CCNC(=S)N/N=C\c1ccnc2ccccc12 | 3.98

a: S=C(N/N=C\c1ccnc2ccccc12)Nc1ccccc1
b: S=C(N/N=C\c1ccnc2ccccc12)Nc1ccc(Br)cc1
c: S=C(NCCc1ccccc1)N/N=C\c1ccnc2ccccc12
### Prompt Highest Kb first, then in falling order down to the smallest. API: response body holds the labels in the requested order.
### Response b, a, c
(b: 7.44 ×10⁴ /M, a: 3.5 ×10⁴ /M, c: 2.42 ×10⁴ /M)

P: O=[N+]([O-])c1ccc(NC(=S)N/N=C\c2ccnc3ccccc23)cc1
Q: S=C(N/N=C\c1ccnc2ccccc12)Nc1ccc(Cl)cc1
### Prompt Smaller Kb value, P vs Q ? Which one? Tell me its label.
### Response P
